system: KRAS-mutant PDC multicell tumor spheroid viability; assay: Anticancer human tumor 521955-158-R2-J5-PDC patient-derived pancreatic carcinoma cell line growth inhibition [KRAS2]; conditions: second compound 1 µM; first compound 0.0316 µM; stronger effect = lower value
// viability, T/C lookup, one value per entry

Compound: CC(=O)OC12COC1CC(O)C1(C)C(=O)C(O)C3=C(C)C(OC(=O)C(O)C(NC(=O)OC(C)(C)C)c4ccccc4)CC(O)(C(OC(=O)c4ccccc4)C21)C3(C)C (centres undefined) + COc1cc2nc(C)nc(NC(C)c3cc(N)cc(C(F)(F)F)c3)c2cc1OC1CCOC1
Unit descriptor: %
viability, T/C: 12.9

Compound: CC(=O)Nc1cccc(-n2c(=O)n(C3CC3)c(=O)c3c(Nc4ccc(I)cc4F)n(C)c(=O)c(C)c32)c1 + CNCc1ccccc1-c1csc(C(C)Nc2nc(C)nc3cc(OC)c(OC)cc23)c1
Unit descriptor: %
viability, T/C: 2.12

Compound: CC1OCC2(CCN(c3cnc(Sc4ccnc(N)c4Cl)c(N)n3)CC2)C1N (centres undefined) + COc1cc2nc(C)nc(NC(C)c3cc(N)cc(C(F)(F)F)c3)c2cc1OC1CCOC1
Unit descriptor: %
viability, T/C: 105

Compound: Cn1nccc1Nc1nccc(-c2cc3c(s2)C(C)(C)N(CCN2CCOCC2)C3=O)n1 + CNCc1ccccc1-c1csc(C(C)Nc2nc(C)nc3cc(OC)c(OC)cc23)c1
Unit descriptor: %
viability, T/C: 103

====

system: KRAS-mutant PDC multicell tumor spheroid viability; assay: Anticancer human tumor 521955-158-R2-J5-PDC cell line growth inhibition [KRAS2]; conditions: curve of first compound; second compound 0.1 µM;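 further: viability read after seven days of drug exposure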

Compound: COc1cc2nccc(Oc3ccc(NC(=O)C4(C(=O)Nc5ccc(F)cc5)CC4)cc3)c2cc1OC + C=CC(=O)N1CCN(c2nc(=O)n(-c3c(C)ccnc3C(C)C)c3nc(-c4c(O)cccc4F)c(F)cc23)C(C)C1
Test system: KRAS-mutant PDC multicell tumor spheroid viability
Censoring operator: =
IC50 (µM): 6.55
//
Compound: COc1cc2nccc(Oc3ccc(NC(=O)C4(C(=O)Nc5ccc(F)cc5)CC4)cc3)c2cc1OC + COc1cc2nc(C)nc(NC(C)c3cc(N)cc(C(F)(F)F)c3)c2cc1OC1CCOC1
Test system: KRAS-mutant PDC multicell tumor spheroid viability
Censoring operator: =
IC50 (µM): 7.43
//
Compound: CC1OCC2(CCN(c3cnc(Sc4ccnc(N)c4Cl)c(N)n3)CC2)C1N (stereo unspecified) + C=CC(=O)N1CCN(c2nc(OCC3CCCN3C)nc3c2CCN(c2cccc4cccc(C)c24)C3)CC1CC#N
Test system: KRAS-mutant PDC multicell tumor spheroid viability
Censoring operator: >
IC50 (µM): 10
//
Compound: CCN1CCN(Cc2ccc(Nc3ncc(F)c(-c4cc(F)c5nc(C)n(C(C)C)c5c4)n3)nc2)CC1 + CC1OCC2(CCN(c3cnc(Sc4ccnc(N)c4Cl)c(N)n3)CC2)C1N
Test system: KRAS-mutant PDC multicell tumor spheroid viability
Censoring operator: >
IC50 (µM): 1
//
Compound: COc1cc(Nc2ncc3c(n2)-c2ccc(Cl)cc2C(c2c(F)cccc2OC)=NC3)ccc1C(=O)O + C=CC(=O)N1CCN(c2nc(OCC3CCCN3C)nc3c2CCN(c2cccc4cccc(C)c24)C3)CC1CC#N
Test system: KRAS-mutant PDC multicell tumor spheroid viability
Censoring operator: <
IC50 (µM): 0.0316
//
Compound: CC1(C)CCC(CN2CCN(c3ccc(C(=O)NS(=O)(=O)c4ccc(NCC5CCOCC5)c([N+](=O)[O-])c4)c(Oc4cnc5[nH]ccc5c4)c3)CC2)=C(c2ccc(Cl)cc2)C1 + C=CC(=O)N1CCN(c2nc(=O)n(-c3c(C)ccnc3C(C)C)c3nc(-c4c(O)cccc4F)c(F)cc23)C(C)C1
Test system: KRAS-mutant PDC multicell tumor spheroid viability
Censoring operator: =
IC50 (µM): 5.91
//
Compound: Cn1nccc1Nc1nccc(-c2cc3c(s2)C(C)(C)N(CCN2CCOCC2)C3=O)n1 + C=CC(=O)N1CCN(c2nc(=O)n(-c3c(C)ccnc3C(C)C)c3nc(-c4c(O)cccc4F)c(F)cc23)C(C)C1
Test system: KRAS-mutant PDC multicell tumor spheroid viability
Censoring operator: =
IC50 (µM): 1.61
//
Compound: CC(C)NCC(C(=O)N1CCN(c2ncnc3c2C(C)CC3O)CC1)c1ccc(Cl)cc1 (stereo unspecified) + C=CC(=O)N1CCN(c2nc(OCC3CCCN3C)nc3c2CCN(c2cccc4cccc(C)c24)C3)CC1CC#N
Test system: KRAS-mutant PDC multicell tumor spheroid viability
Censoring operator: >
IC50 (µM): 10
//
Compound: CC(=O)OC12COC1CC(O)C1(C)C(=O)C(O)C3=C(C)C(OC(=O)C(O)C(NC(=O)OC(C)(C)C)c4ccccc4)CC(O)(C(OC(=O)c4ccccc4)C21)C3(C)C (stereo unspecified) + C=CC(=O)N1CCN(c2nc(OCC3CCCN3C)nc3c2CCN(c2cccc4cccc(C)c24)C3)CC1CC#N
Test system: KRAS-mutant PDC multicell tumor spheroid viability
Censoring operator: <
IC50 (µM): 0.01
//
Compound: CCNC(=O)CC1N=C(c2ccc(Cl)cc2)c2cc(OC)ccc2-n2c(C)nnc21 (stereo unspecified) + COc1cc2nc(C)nc(NC(C)c3cc(N)cc(C(F)(F)F)c3)c2cc1OC1CCOC1
Test system: KRAS-mutant PDC multicell tumor spheroid viability
Censoring operator: =
IC50 (µM): 0.405
//
Compound: COC(=O)c1ccc2c(C(=Nc3ccc(N(C)C(=O)CN4CCN(C)CC4)cc3)c3ccccc3)c(O)[nH]c2c1 + CC1OCC2(CCN(c3cnc(Sc4ccnc(N)c4Cl)c(N)n3)CC2)C1N
Test system: KRAS-mutant PDC multicell tumor spheroid viability
Censoring operator: =
IC50 (µM): 2.49
